These data points were gathered from ChEMBL document CHEMBL1201862.

This section presents compounds with their documented EC50 values.
assay: Luminescence Cell-Based Dose Response HTS to Identify Activators of Luciferase Translation or Activity in H4 […] Cells. [Related pubchem assays: 1829 (Project Summary), 1814 (Primary HTS)]; assay type: functional
Active and inactive are the calls of the source.

{"Smiles Data": "CCCn1c(N)c(Sc2ccc(C)cc2)c(=O)n(CCC)c1=O", "EC50": "> 120 µM (not active)"}
{"Smiles Data": "O=C(Nc1cc(Cl)ccc1-n1cncn1)c1ccc([N+](=O)[O-])o1", "EC50": "> 120 µM (not active)"}
{"Smiles Data": "Oc1ccc(/C=N/Nc2ccc(C(F)(F)F)cn2)cc1", "EC50": "< 0.1 µM (inconclusive)"}

Let's switch to this compound now.
Request: Could you tell me which EC50 is on file for `C(=N\Nc1nc(-c2ccccc2)cs1)/c1cccnc1` ?
Result: 33.3 µM (active)

----------
molecular target: Sentrin-specific protease 6 (Homo sapiens, UniProt Q9GZR1); type: functional
Activity calls are given as the source filed them.
This section presents molecules with their documented IC50 values.

# example entries with known answers
{"Smiles Data": "Cc1ccc(-c2nnc(SCc3ccccc3F)o2)cc1", "Target System": "Sentrin-specific protease 6 (Homo sapiens, UniProt Q9GZR1)", "Readout Name": "IC50", "Meas Value": "14.6 µM (active)"}
{"Smiles Data": "COc1ccc(C(N)=NOC(=O)CSc2ccccc2)cc1", "Target System": "Sentrin-specific protease 6 (Homo sapiens, UniProt Q9GZR1)", "Readout Name": "IC50", "Meas Value": "28 µM (active)"}
{"Smiles Data": "CCCCOC(=O)Nc1ccc2c(C)cc(=O)oc2c1", "Target System": "Sentrin-specific protease 6 (Homo sapiens, UniProt Q9GZR1)", "Readout Name": "IC50", "Meas Value": "8.26 µM (active)"}
{"Smiles Data": "Cc1cc(C=C2C(=O)c3ccccc3C2=O)c(C)n1C", "Target System": "Sentrin-specific protease 6 (Homo sapiens, UniProt Q9GZR1)", "Readout Name": "IC50", "Meas Value": "56.1 µM (active)"}
{"Smiles Data": "O=C(c1cc(-c2ccc(Cl)cc2Cl)on1)N1CCCCCC1", "Target System": "Sentrin-specific protease 6 (Homo sapiens, UniProt Q9GZR1)", "Readout Name": "IC50", "Meas Value": "18.5 µM (active)"}

Let's switch to this molecule now.
Request: Checklist item: IC50 tested on Sentrin-specific protease 6 (Homo sapiens, UniProt Q9GZR1), entry `Cc1ccc(C(=O)NC2(O)C(=O)c3ccccc3C2=O)cc1C` , value?;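 also: Luminescence-based dose-response confirmatory assay of SENP6 inhibition, following up an ultra-high-throughput screen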
Result: 3.48 µM (active)

----------
target: High affinity choline transporter 1 (Homo sapiens, UniProt Q9GZV3); assay: human choline transporter blockers, potency – cell-based, 5-point CRC, membrane potential dye, dose response (AID 504840); format: functional
Sequence (Q9GZV3 whole entry): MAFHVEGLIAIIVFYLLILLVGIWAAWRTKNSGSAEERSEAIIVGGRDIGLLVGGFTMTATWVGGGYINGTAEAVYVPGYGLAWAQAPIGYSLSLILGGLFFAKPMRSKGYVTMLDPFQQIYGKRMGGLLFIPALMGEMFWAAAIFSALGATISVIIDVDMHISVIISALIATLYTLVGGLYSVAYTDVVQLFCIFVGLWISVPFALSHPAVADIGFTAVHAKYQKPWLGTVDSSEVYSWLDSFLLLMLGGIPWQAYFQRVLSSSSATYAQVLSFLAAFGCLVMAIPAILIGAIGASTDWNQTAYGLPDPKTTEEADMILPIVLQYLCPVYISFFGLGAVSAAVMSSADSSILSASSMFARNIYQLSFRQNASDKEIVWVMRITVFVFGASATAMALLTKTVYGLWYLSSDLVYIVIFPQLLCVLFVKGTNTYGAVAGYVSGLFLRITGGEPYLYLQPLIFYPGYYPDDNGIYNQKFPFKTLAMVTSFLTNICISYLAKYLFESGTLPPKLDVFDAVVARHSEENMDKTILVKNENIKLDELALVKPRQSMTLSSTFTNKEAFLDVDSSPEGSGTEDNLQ
The source made the active and inactive calls.
This section presents molecules with their documented IC50 values.

# example entries with known answers
{"Molecule": "CC(/C=C1\\SC(=S)N(CC(=O)O)C1=O)=C\\c1ccccc1", "Meas Value": "9.45 µM (active)"}
{"Molecule": "O=C1ON=C(c2ccccc2)/C1=C/c1ccc(O)c(O)c1", "Meas Value": "4.37 µM (active)"}
{"Molecule": "CCc1ccc(OC(C)C(=O)Nc2ccc(S(=O)(=O)Nc3nccs3)cc2)cc1 (stereo not given)", "Meas Value": "13.8 µM (active)"}
{"Molecule": "O=[N+]([O-])c1c(Nc2cccc(O)c2)cc(Cl)c2nonc12", "Meas Value": "10.5 µM (active)"}

Let's switch to this molecule now.
Request: Could you tell me which IC50 is on file for CCOC(=O)C1=C(C)N=c2s/c(=C/c3cccc([N+](=O)[O-])c3O)c(=O)n2C1c1cc(OC)c(OC)c(OC)c1 (stereo not given) ?
Result: 13.2 µM (active)

----------
biological target: Caspase-3 (Homo sapiens, UniProt P42574); type: functional;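 also: Dose-response selectivity test against caspase-3 for candidate inhibitors of sentrin-specific proteases (SENPs)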
Calls of active or inactive are those of the source.
Your response should consist of one outcome taken from yes = active, no = inactive

A selection of reference data follows.
{"Smiles Data": "CCCCOC(=O)Nc1ccc2c(C)cc(=O)oc2c1", "Target System": "Caspase-3 (Homo sapiens, UniProt P42574)", "Answer Label": "yes"}
{"Smiles Data": "Cc1ccc(-c2nnc(SCc3ccccc3F)o2)cc1", "Target System": "Caspase-3 (Homo sapiens, UniProt P42574)", "Answer Label": "yes"}
{"Smiles Data": "Cc1cc(C=C2C(=O)c3ccccc3C2=O)c(C)n1C", "Target System": "Caspase-3 (Homo sapiens, UniProt P42574)", "Answer Label": "yes"}

Request: Please let me know the test result on file for `O=C(c1cc(-c2ccc(Cl)cc2Cl)on1)N1CCCCCC1` .
Result: yes

Request: Please let me know the test result on file for `Cc1ccc(C(=O)NC2(O)C(=O)c3ccccc3C2=O)cc1C` .
Result: no

----------
molecular target: Insulin-degrading enzyme (Homo sapiens, UniProt P14735); assay: cellular IDE activation of Abeta substrate cleavage – fluorescence polarization, HEK cells, dose response (AID 588439); assay type: functional, cell-based
Sequence (P14735 whole entry): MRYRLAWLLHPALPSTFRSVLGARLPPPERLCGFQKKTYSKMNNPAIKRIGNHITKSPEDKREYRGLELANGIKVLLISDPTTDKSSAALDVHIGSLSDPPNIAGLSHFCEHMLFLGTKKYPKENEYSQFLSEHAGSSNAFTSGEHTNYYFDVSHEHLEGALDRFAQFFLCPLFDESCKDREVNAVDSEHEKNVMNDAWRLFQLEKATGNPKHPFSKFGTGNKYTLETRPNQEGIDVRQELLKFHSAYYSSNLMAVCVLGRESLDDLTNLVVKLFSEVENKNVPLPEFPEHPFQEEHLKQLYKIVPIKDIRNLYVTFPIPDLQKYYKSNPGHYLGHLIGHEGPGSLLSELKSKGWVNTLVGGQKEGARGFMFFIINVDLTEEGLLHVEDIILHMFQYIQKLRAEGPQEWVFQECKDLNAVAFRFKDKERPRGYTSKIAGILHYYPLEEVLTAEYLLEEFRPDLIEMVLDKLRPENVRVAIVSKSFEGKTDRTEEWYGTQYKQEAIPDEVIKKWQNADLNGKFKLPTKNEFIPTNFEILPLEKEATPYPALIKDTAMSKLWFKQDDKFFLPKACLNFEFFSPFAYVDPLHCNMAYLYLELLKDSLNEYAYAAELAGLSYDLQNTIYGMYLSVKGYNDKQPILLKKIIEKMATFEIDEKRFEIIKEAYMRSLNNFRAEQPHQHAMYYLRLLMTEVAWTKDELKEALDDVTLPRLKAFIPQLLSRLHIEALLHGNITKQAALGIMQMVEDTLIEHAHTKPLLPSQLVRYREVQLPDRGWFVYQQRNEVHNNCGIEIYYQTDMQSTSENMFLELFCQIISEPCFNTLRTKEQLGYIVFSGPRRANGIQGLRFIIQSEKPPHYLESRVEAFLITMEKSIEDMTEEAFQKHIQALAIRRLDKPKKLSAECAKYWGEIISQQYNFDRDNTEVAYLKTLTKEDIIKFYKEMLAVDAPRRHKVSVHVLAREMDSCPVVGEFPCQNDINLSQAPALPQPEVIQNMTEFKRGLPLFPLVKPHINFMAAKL
Active and inactive are the calls of the source.
Your response should consist of one outcome taken from active, inactive

A selection of reference data follows.
{"Compound": "COc1ccc(NC(=O)c2cc([N+](=O)[O-])ccc2O)cc1", "Target System": "Insulin-degrading enzyme (Homo sapiens, UniProt P14735)", "Answer Label": "inactive"}
{"Compound": "CN(c1ccccc1)S(=O)(=O)c1cccc(NC(=O)COc2cccc([N+](=O)[O-])c2)c1", "Target System": "Insulin-degrading enzyme (Homo sapiens, UniProt P14735)", "Answer Label": "inactive"}
{"Compound": "Nc1cc(N)nc(SCCOc2ccccc2)n1", "Target System": "Insulin-degrading enzyme (Homo sapiens, UniProt P14735)", "Answer Label": "inactive"}
{"Compound": "FC(F)(F)c1cc(CCN2CCNC[C@@H]2CC2CCCCC2)cc(C(F)(F)F)c1", "Target System": "Insulin-degrading enzyme (Homo sapiens, UniProt P14735)", "Answer Label": "inactive"}
{"Compound": "COc1ccc(OC)c(C(=O)COC(=O)CN2C(=O)NC3(CCCCC3C)C2=O)c1 (stereo unspecified)", "Target System": "Insulin-degrading enzyme (Homo sapiens, UniProt P14735)", "Answer Label": "inactive"}

Could you now look at the following compound, please?
Request: Please let me know the test result on file for `CC[C@@H](C)[C@H](CNC)NC[C@@H](Cc1cccc2ccccc12)NCCc1cccc(C(F)(F)F)c1` .
Result: active

----------
This section presents compounds with their documented IC50 values.
target: Voltage-gated N-type calcium channel alpha-1B subunit/Amyloid beta A4 precursor protein-binding family A member 1 (Homo sapiens, UniProt Q00975+Q02410); assay: disruptors of Mint-PDZ/N-type channel peptide interaction – biochemical, HTRF, SAR follow-up (AID 2489); assay type: functional
Sequence (Q00975 whole entry): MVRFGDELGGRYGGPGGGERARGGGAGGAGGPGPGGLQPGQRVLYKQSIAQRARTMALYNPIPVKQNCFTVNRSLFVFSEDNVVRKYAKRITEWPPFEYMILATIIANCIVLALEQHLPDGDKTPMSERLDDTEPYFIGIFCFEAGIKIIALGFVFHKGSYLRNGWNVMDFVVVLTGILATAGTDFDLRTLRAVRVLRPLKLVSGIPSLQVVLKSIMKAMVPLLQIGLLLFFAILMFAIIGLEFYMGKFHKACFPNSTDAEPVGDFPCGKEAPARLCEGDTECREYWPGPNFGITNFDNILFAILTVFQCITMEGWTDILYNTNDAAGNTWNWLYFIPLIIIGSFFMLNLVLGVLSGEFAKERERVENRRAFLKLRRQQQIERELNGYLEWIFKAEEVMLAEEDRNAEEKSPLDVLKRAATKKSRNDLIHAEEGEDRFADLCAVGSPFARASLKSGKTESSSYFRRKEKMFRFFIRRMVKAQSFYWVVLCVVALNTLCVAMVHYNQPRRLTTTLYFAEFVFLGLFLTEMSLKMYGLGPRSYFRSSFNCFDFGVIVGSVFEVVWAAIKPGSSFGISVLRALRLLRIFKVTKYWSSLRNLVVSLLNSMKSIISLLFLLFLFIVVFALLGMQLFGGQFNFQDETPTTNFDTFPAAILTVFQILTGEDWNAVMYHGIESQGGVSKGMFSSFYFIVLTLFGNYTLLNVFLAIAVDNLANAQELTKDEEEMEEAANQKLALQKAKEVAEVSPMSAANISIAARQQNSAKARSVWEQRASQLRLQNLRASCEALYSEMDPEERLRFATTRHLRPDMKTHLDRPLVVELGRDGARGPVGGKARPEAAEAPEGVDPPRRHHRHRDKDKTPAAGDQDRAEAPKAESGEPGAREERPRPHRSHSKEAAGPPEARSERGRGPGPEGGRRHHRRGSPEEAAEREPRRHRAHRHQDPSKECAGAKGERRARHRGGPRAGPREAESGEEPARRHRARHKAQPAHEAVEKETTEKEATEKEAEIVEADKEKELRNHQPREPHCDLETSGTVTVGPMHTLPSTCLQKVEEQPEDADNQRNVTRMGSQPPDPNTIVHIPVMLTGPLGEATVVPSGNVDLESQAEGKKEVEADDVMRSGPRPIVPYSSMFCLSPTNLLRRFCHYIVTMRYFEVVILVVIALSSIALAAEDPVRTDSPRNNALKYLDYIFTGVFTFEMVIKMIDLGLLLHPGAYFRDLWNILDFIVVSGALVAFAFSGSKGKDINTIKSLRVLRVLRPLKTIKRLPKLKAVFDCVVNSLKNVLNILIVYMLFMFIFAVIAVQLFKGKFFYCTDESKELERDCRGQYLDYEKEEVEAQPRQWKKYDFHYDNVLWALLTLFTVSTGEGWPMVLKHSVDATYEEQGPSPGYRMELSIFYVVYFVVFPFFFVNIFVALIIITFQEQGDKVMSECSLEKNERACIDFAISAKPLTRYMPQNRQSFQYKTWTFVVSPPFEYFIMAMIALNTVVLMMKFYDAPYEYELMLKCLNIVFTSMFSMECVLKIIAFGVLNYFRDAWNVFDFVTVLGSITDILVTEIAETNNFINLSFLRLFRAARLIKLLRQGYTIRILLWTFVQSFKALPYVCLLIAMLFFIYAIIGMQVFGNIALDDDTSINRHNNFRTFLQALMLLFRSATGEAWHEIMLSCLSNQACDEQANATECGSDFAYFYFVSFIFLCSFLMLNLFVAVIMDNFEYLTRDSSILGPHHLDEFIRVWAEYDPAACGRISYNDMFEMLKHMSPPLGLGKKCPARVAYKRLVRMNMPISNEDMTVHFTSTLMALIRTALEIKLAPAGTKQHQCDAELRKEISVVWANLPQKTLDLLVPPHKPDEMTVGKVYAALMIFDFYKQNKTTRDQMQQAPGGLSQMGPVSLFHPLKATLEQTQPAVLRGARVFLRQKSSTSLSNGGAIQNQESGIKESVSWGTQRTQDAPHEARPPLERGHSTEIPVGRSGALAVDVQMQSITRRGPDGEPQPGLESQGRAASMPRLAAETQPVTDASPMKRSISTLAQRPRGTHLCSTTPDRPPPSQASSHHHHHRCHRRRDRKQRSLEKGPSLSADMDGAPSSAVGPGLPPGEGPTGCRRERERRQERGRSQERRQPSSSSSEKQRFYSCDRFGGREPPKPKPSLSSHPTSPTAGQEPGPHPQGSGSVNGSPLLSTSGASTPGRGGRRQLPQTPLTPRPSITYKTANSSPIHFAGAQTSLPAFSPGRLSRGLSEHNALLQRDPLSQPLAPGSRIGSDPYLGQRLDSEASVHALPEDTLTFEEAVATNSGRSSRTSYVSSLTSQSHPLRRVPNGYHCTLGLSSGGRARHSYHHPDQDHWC
Sequence (Q02410 whole entry): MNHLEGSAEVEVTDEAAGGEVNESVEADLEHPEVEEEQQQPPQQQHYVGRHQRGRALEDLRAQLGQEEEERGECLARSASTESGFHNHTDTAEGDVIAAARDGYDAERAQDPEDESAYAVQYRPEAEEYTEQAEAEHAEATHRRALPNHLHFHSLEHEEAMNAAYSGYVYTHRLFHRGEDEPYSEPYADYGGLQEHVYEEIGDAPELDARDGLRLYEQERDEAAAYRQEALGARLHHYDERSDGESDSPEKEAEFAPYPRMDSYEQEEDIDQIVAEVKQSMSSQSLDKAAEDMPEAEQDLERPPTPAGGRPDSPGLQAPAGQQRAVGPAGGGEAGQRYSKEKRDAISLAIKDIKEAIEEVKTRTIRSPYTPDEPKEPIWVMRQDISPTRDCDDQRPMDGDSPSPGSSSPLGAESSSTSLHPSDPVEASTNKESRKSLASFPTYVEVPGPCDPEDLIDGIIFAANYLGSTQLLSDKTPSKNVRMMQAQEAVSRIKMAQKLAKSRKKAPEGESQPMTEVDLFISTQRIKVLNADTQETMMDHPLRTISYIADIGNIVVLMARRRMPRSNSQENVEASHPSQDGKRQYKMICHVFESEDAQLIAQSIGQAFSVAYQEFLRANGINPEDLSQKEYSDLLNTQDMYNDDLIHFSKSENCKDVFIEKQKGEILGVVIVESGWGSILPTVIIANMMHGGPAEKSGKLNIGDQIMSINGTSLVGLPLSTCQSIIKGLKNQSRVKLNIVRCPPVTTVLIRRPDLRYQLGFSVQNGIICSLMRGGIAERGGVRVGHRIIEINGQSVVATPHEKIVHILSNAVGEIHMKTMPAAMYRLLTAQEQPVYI
Calls of active or inactive are those of the source.

# example entries with known answers
{"Compound": "O=C(Nc1ccccc1N1CCOCC1)c1cc(-c2ccco2)nc2ccccc12", "IC50": "39.3 µM (active)"}
{"Compound": "O=C(CSc1ccc(Cl)cc1)Nc1cccc(-c2nc3ccccc3[nH]2)c1", "IC50": "26.9 µM (active)"}
{"Compound": "CC12C=CC(C)(O1)C1C(=O)N(c3ccc(F)cc3)C(=O)C12 (centres undefined)", "IC50": "10.7 µM (active)"}

Request: Could you tell me which IC50 is on file for `O=C(COC(=O)c1cc(-c2ccco2)nc2ccccc12)NCc1ccccc1Cl` ?
Result: 23 µM (active)

----------
target: UniProtKB P9WQA3; assay: Fluorescence-based biochemical high throughput dose response assay for inhibitors of the fructose-bisphosphate aldolase (FBA) of M. tuberculosis.; assay type: functional
Sequence (P9WQA3 whole entry): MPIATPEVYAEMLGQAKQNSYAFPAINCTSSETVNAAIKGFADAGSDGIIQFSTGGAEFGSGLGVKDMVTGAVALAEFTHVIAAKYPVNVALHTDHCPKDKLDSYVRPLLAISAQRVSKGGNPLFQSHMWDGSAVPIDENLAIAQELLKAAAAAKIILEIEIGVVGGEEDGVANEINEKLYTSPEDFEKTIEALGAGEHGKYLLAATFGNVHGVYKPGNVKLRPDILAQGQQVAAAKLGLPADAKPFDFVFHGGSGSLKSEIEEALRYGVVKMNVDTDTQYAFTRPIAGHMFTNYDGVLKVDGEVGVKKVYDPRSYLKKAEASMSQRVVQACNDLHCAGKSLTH
Active and inactive are the calls of the source.
Your response should consist of one outcome taken from active, inactive

A selection of reference data follows.
{"Smiles Data": "COc1ccc(-c2cc(-c3ccccc3)c(C#N)c(SCC(=O)O)n2)cc1", "Answer Label": "active"}
{"Smiles Data": "CCc1cc(=O)oc2c(C)c(OCC(=O)N3CCC[C@@H]3C(=O)O)ccc12", "Answer Label": "active"}
{"Smiles Data": "COC(=O)CN(c1ccc2c(c1)OCCO2)S(=O)(=O)c1ccccc1", "Answer Label": "inactive"}

Could you now look at the following molecule, please?
Request: Please let me know the test result on file for `Cc1cc2c(SCc3ccccc3Cl)nc(N)nc2nc1C` .
Result: active

----------
test: DRD fibroblast viability loss – cell-based, non-viral oncogenic, luminescence, dose response (AID 1934); format: functional; conditions: Homo sapiens
Calls of active or inactive are those of the source.
This section presents compounds with their documented EC50 values.

# example entries with known answers
{"Smiles Data": "COc1ccccc1C(=O)Nc1nc2ccccc2[nH]1", "EC50": "0.734 µM (active)"}
{"Smiles Data": "Cc1nn2cc(-c3cccc(Cl)c3)cnc2c1Br", "EC50": "16 µM (active)"}
{"Smiles Data": "COc1ccc(NC(=O)c2cc([N+](=O)[O-])ccc2O)cc1", "EC50": "6.2 µM (active)"}

Let's switch to this compound now.
Request: Could you tell me which EC50 is on file for `CCN1C(=O)/C(=C/C=C2/Sc3ccccc3N2CCO)SC1=S` ?
Result: 50.2 µM (active)
